TEST NAME: Antiproliferative activity against human 3AO cells after 48 hrs by MTT assay
Assay type: functional, cell-based
Lab note - cut at 10 µM for IC50: Satisfied if strictly below, Not satisfied if not.

Asked: Consider the molecule O=C(CN1C(=O)C2(OCCCCO2)c2cc(Cl)ccc21)Nc1ccc(C(=O)NO)cc1 . Is its IC50 strictly less than 10 µM?
Given back: Not satisfied

Asked: Please let me know if O=C(CN1C(=O)C2(OCCCO2)c2cc(Br)ccc21)Nc1ccc(C(=O)NO)cc1 shows IC50 below 10 µM.
Given back: Not satisfied

Asked: Dear reviewer, please state whether O=C(CN1C(=O)C2(OCCCCO2)c2cc(Br)ccc21)Nc1ccc(C(=O)NO)cc1 has IC50 strictly beneath 10 µM.
Given back: Not satisfied

Asked: Could you please tell me whether IC50 recorded for O=C(CCN1C(=O)C2(OCCCO2)c2cc(Br)ccc21)Nc1ccc(C(=O)NO)cc1 is less than 10 µM?
Given back: Satisfied

Asked: In the record for O=C(CN1C(=O)C2(OCCCO2)c2cc(Cl)ccc21)Nc1ccc(C(=O)NO)cc1 , is IC50 less than 10 µM?
Given back: Not satisfied

Continuing:
Asked: Problem: For the molecule O=C(CCCN1C(=O)C2(OCCCO2)c2cc(Br)ccc21)Nc1ccc(C(=O)NO)cc1 , is IC50 under 10 µM?
Given back: Not satisfied

The reported measurements were obtained from ChEMBL document CHEMBL3593221.
